Would you mind telling me the reported growth of each entry?
Test system: MOLT-4 leukemia
Assay: NCI-60 one-dose screen, 48 h (100 = growth as untreated, 0 = no growth, -100 = all killed)
Conditions: 10 µM unless noted
Compounds without any hit were thinned out: in the full panel of roughly 83,000, 20% have a hit.
One number for each entry, in %.

- c1ccc2c(c1)Oc1cccnc1-n1nccc1-2: 109
- CC(C)NCC(O)COc1ccc(CC(N)=O)cc1 (stereo not drawn): 107

Input: So what's the measured growth for this one? `OCc1cnccc1NC12CC3CC(CC(C3)C1)C2`
Output: 88.8

====

System: HCC-2998 colon
Assay: NCI-60 one-dose screen, 48 h (100 = growth as untreated, 0 = no growth, -100 = all killed)
Details: 10 µM unless noted
Protocol: Growth inhibition of the HCC-2998 human tumor cell line is measured as a screen for anti-cancer activity. Cells are grown in 96 well plates and exposed to the test compound for 48 hours. Compounds are tested at a single concentration, which is 10^-5 M for most compounds. The reported endpoint is percent growth (GI% or GIPRCNT), where numbers from 0 - 100% represent growth inhibition, and numbers from -100% - 0 represent cell death. For example, a value of 40 represents 60% growth inhibition. […]
The panel holds about 83,000 compounds, 20% with a hit somewhere; the sample as a whole holds those more often.
Reported endpoint: growth (%)
Answers are plain numbers, in %.

• CN1CCN(Cn2nc(-c3cc(F)c(Cl)cc3Cl)n(/N=C/c3ccc(N(C)C)cc3)c2=S)CC1 = 98
• CN(C)CC/C=C1\c2ccccc2Sc2ccc(Cl)cc21 = 27.4

// input: 2 compounds below; output: growth for each
1. Cc1cc(NC(=O)c2cccc(C(F)(F)F)c2)ccc1-n1ccc2c(NC(=O)c3ccccc3)nccc21
2. CCCCCCCCN(CCCCCCCC)CC(O)c1cc(-c2ccccc2)nc2ccc(OC)cc12 (centres undefined)

Output:
1. 115
2. 101

====

Tested on: NCI/ADR-RES ovarian
Assay: NCI-60 one-dose screen, 48 h (100 = growth as untreated, 0 = no growth, -100 = all killed)
Settings: 10 µM unless noted
About 83,000 compounds went through this panel and 20% of them were active in at least one assay; those are over-represented in the sample as a whole.
Would you mind telling me the reported growth of each entry?
Numbers only, in %.

• COc1ccc(C[C@H](N)C(=O)N[C@@H]2[C@@H](CO)OC(n3cnc4c(N(C)C)ncnc43)[C@@H]2O)cc1 (stereo not given in full) = 93.4
• O=C1c2ccccc2OC=C(c2ccccc2)N1CCCCNc1ccc(F)cc1 = 85.8
• COc1cc2ncn3c(=O)c4c5c(sc4nc3c2cc1OC)CCCCC5 = 92.4
• CC(C)(C)NCC(O)COc1c(Br)c(Br)c(Br)c2c1OC(C)(C)C2 (stereo not given) = -15.9

Proceeding to the next compound to report its growth.
Input: So what's the measured growth for this one? `O=C(Nc1ccc(-n2ccc3c(NC(=O)c4ccccc4)ncnc32)cc1)Nc1ccc(Cl)c(C(F)(F)F)c1`
Output: 16

====

Test system: OVCAR-4 ovarian
Assay: NCI-60 one-dose screen, 48 h (100 = growth as untreated, 0 = no growth, -100 = all killed)
Details: 10 µM unless noted
Compounds without any hit were thinned out: in the full panel of roughly 83,000, 20% have a hit.
Binary call on growth: Yes from 90% upward, No beneath that.

Consider the following illustrative entries.
- Cc1cccc(NCS(=O)(=O)O)c1: Yes
- CCCCC(=O)Nc1nc2ccc(SCCC)cc2s1: No
- CCN1CCN(Cc2ccc(NC(=O)Nc3cccc(-n4ccc5c(NC(=O)c6ccccc6)nccc54)c3)cc2C(F)(F)F)CC1: Yes
- CCNc1ncnc2n[nH]nc12: Yes
- Cc1ccc(-c2cc(-c3nnc(SCC(=O)c4ccccc4)o3)c3ccccc3n2)cc1: No

Input: Item `Nc1nc(Cl)cc(NCc2ccc(CNc3cc(Cl)nc(N)n3)cc2)n1` with growth of 90% or above?
Output: No

Input: Item `COc1ccc(/C(=C/c2cc(OC)c(OC)c(OC)c2)[N+](=O)[O-])cc1` with growth of 90% or above?
Output: No

Input: Item `CCOC(=O)c1cnc2c(OC)ccc(OC)c2c1Cl` with growth of 90% or above?
Output: Yes

Input: Item `C=C1C(=O)O[C@H]2[C@H]1CC/C(COC(=O)c1ccc(Br)cc1)=C\CC[C@@]1(C)O[C@@H]21` with growth of 90% or above?
Output: No

Input: Item `O=C(Nc1cccc(-n2ccc3c(NC(=O)c4ccccc4)nccc32)c1)Nc1cc(C(F)(F)F)cc(C(F)(F)F)c1` with growth of 90% or above?
Output: No

Input: Item `O=C(Nc1ccc(-n2ccc3c(NC(=O)c4ccccc4)ncnc32)cc1)Nc1ccc(Cl)c(Cl)c1` with growth of 90% or above?
Output: No

Input: Item `COc1cc(C(=O)N2CCN(C(=O)c3cc(OC)c(OCc4ccccc4)cc3N)CC2)c(N)cc1OCc1ccccc1` with growth of 90% or above?
Output: Yes

Input: Item `COc1ccc2c(c1)/C(=C/c1c(-c3cc(OC)c(OC)c(OC)c3Br)nc3sccn13)C(=O)N2` with growth of 90% or above?
Output: Yes

Input: Item `COc1cc2c(cc1OCCCCC(=O)Nc1ccc(-c3nc4ccccc4s3)cc1)N=C[C@@H]1CCCN1C2=O` with growth of 90% or above?
Output: No

Input: Item `COc1ccc(-c2nn(-c3ccc(NC(=O)Nc4cc(C(F)(F)F)cc(C(F)(F)F)c4)cc3)cc2-c2ccncc2)cc1Cl` with growth of 90% or above?
Output: No

====

Would you mind telling me the reported growth of each entry?
Test system: NCI-H23 lung
Assay: NCI-60 one-dose screen, 48 h (100 = growth as untreated, 0 = no growth, -100 = all killed)
Conditions: 10 µM unless noted
About 83,000 compounds went through this panel and 20% of them were active in at least one assay; those are over-represented in the sample as a whole.
Answers are plain numbers, in %.

* COc1ccccc1S(=O)(=O)Nc1ccc2c3c(cc(-c4cnn(C5CC5)c4)nc13)C(=O)N2C | 67.5

// input: 6 compounds below; output: growth for each
1. O=S1(=O)N(CCNc2nccc(-c3c(-c4cccc(O)c4)nc4sccn34)n2)CCN1Cc1ccccc1
2. CC(=O)Nc1ccc([I+]c2ccc([N+](=O)[O-])cc2)cc1
3. CC(C)Cn1cnc2c3ccccc3nc(NCn3nc(-c4cc(Cl)cc(Cl)c4Cl)oc3=S)c21
4. Cc1cn(C2CC(F)C(CO)O2)c(=O)[nH]c1=O (centres undefined)
5. CC(=O)n1cc(/C=C2\N=C(c3ccc(Cl)cc3)N(c3ccc(S(=O)(=O)Nc4nccs4)cc3)C2=O)c2ccccc21
6. O=C1OC(c2ccc(-c3ccccc3)cc2)=C/C1=C/C=C/c1ccccc1

Output:
[84.1, 84.6, 80.4, 90.3, 89, 100]

====

Tested on: MDA-MB-435 melanoma
Experiment: NCI-60 one-dose screen, 48 h
Conditions: 10 µM unless noted
Experimental: Growth inhibition of the MDA-MB-435 human Melanoma tumor cell line is measured as a screen for anti-cancer activity. Cells are grown in 96 well plates and exposed to the test compound for 48 hours. Compounds are tested at a single concentration, which is 10^-5 M for most compounds. The reported endpoint is percent growth (GI% or GIPRCNT), where numbers from 0 - 100% represent growth inhibition, and numbers from -100% - 0 represent cell death. […]
The panel holds about 83,000 compounds, 20% with a hit somewhere; the sample as a whole holds those more often. The source made the active and inactive calls. Rule for the calls: active = growth percent below 10; inactive = the rest.
Would you mind answering with one of these outcomes? YES = active, NO = inactive

Consider the following illustrative entries.
* c1ccc(OCC[P+](c2ccccc2)(c2ccccc2)c2ccccc2)cc1 | YES
* CCN(CC)c1ccc(C2CC(c3cc(OC)c(OC)c(OC)c3)=NN2)cc1 (stereo unspecified) | NO
* COc1ccccc1S(=O)(=O)Nc1ccc2c3c(cc(-c4cnn(C)c4)nc13)C(=O)N2C | NO
* COc1ccc(-c2c(C#N)cnc(N)c2-c2nc3cc(C)c(C)cc3[nH]2)cc1 | YES
* O=C(c1ccccc1)[C@H]1[C@@H]2CCCN2[C@]2(C(=O)Nc3ccc(F)cc32)[C@]12C(=O)Nc1ccccc12 | NO

Input: Lab log entry: `O=[N+]([O-])c1cccc(C2c3ccccc3Oc3ccccc32)c1` — outcome as called in the assay?
Output: NO

Input: Lab log entry: `C/C(=N\N=C1/SCC(=O)N1c1ccccc1)c1ccco1` — outcome as called in the assay?
Output: NO

Input: Lab log entry: `CCCOC(=O)c1ccc([N+](=O)[O-])o1` — outcome as called in the assay?
Output: NO

====

Would you mind telling me the reported growth of each entry?
Test system: HCC-2998 colon
Experiment: NCI-60 one-dose screen, 48 h (100 = growth as untreated, 0 = no growth, -100 = all killed)
Settings: 10 µM unless noted
About 83,000 compounds went through this panel and 20% of them were active in at least one assay; those are over-represented in the sample as a whole.
Numbers only, in %.

Known results for compounds:
• CC(=O)N[C@@H](CNC(=O)c1cc(NC(=O)c2cc(NC(=O)c3cc(NC(=O)c4nccn4C)cn3C)cn2C)cn1C)CC(=O)Nc1cn(C)c(C(=O)Nc2cc(C(=O)Nc3cc(C(=O)Nc4cc(C(=O)NCCCN(C)CCCNC(=O)c5cccc(C(=O)O)c5)n(C)c4)n(C)c3)n(C)c2)n1 = 106
• COc1cc2ncn3c(=O)c4c5c(sc4nc3c2cc1OC)CCCCC5 = 106
• CCCCCn1ncc(-c2c(O)c(O)cc3c(O)c(-c4c(C)cc5c(-c6cnn(CCCCC)n6)c(O)c(O)cc5c4O)c(C)cc23)n1 = 0.112
• Cc1cc2c(cc1C)N(C(=O)CCl)CCN2C(=O)CCl = -97.9
• OC[C@@H](O)C(O[C@@H]1O[C@H](CO)[C@H](O)[C@H](O)[C@H]1O)[C@H](O)[C@@H](O)CO (stereo partly specified) = 95.6

// input: 8 compounds below; output: growth for each
1. Cc1nssc1=S
2. C=C1c2c(Cl)ccc(O)c2C(O)=C2C(=O)[C@]3(O)C(O)=C(C(N)=O)C(=O)[C@@H](N(C)C)[C@@H]3[C@@H](O)[C@H]12
3. CC(C)C(=O)Nc1nc2c(s1)CCCc1ccn(S(=O)(=O)c3ccccc3)c1-2
4. C/C(=N\N=C1/SCC(=O)N1c1ccccc1)c1ccco1
5. CC1(C)N=C(N)N=C(N)N1c1cccc(CCCCc2ccccc2)c1
6. Cc1cc(N2CCOCC2)nc(N(CCNc2ccnc3cc(Cl)ccc23)Cc2ccco2)n1
7. NC(=O)C1=C[C@H]2[C@H]3C=C[C@@]2(O)C(=O)O[C@@H]3O1
8. CCN(CC)CCNc1ccc([N+](=O)[O-])c2sc3cc(Cl)ccc3c(=O)c12

Output:
108
8.18
106
109
-9.45
62.9
91.6
47.3

// input: 2 compounds below; output: growth for each
1. CCCCNC(=O)Oc1ccc(/C(=C(/CC)Cc2ccccc2)c2ccc(OCCCN(C)C)cc2)cc1
2. COc1cccc(C2CC(c3cc(OC)c(OC)c(OC)c3)=NN2)c1 (stereo unspecified)

Output:
88.3
83.2

Input: So what's the measured growth for this one? `COc1ccc(CNc2nc3ccccc3c3c(=O)c4ccccc4sc23)cc1OC`
Output: 94
